Where these numbers come from: PubChem BioAssay (NCI)

System: HCC-2998 colon
Assay: NCI-60 one-dose screen, 48 h
Conditions: 10 µM unless noted
Compounds without any hit were thinned out: in the full panel of roughly 83,000, 20% have a hit. Activity calls are given as the source filed them. How the source made its calls: active means growth percent below 10; inactive means the rest.
Return exactly one item of YES (active), NO (inactive)

Cc1nn(-c2ccccc2)c(-n2ccnc2)c1/C=N/Nc1nc(-c2ccc(F)cc2)cs1    NO

Ask: Could you kindly confirm the outcome this assay logged for CCOC(=O)C1=C(N)Oc2c(sc3c(C)cccc23)C1c1ccc(Cl)cc1 (stereo not drawn) ?
Reply: NO

Ask: Could you kindly confirm the outcome this assay logged for Cc1cc2nc3ccc(N=Nc4ccc(N(C)C)cc4)cc3n(-c3ccccc3)c-2cc1=N ?
Reply: YES

----------
Tested on: SK-MEL-28 melanoma
Experiment: NCI-60 one-dose screen, 48 h
Conditions: 10 µM unless noted
The panel holds about 83,000 compounds, 20% with a hit somewhere; the sample as a whole holds those more often. The source made the active and inactive calls. How the source made its calls: active means growth percent below 10; inactive means the rest.
Return exactly one item of 1.0 for active, 0.0 for inactive

Answered examples (8):
O=C(S)CNC(=O)c1ccccc1    0.0
CCCCCCN(CCCCCC)c1ccc(/C=C2/SC(=O)NC2=O)c(C)c1    0.0
C#Cc1cccc(NC(=O)c2ccc(NC(=O)C=C)cc2)c1    0.0
CCc1cccc2c3c(sc12)C(c1ccc(Cl)cc1)C(C#N)=C(N)O3 (stereo not drawn)    0.0
CN1CCN(c2ccc(-c3ccc4ncc(C#N)c(Nc5ccc(F)c(Cl)c5)c4c3)cc2)CC1    1.0
COc1ccc(C2CC(c3ccc(Nc4ccnc5cc(Cl)ccc45)cc3)=NN2C=O)cc1 (stereo not drawn)    0.0
N#C/C(=C\c1ccc(F)cc1)n1nc2cccc(F)c2n1    0.0
O=S(=O)(Nc1ccc(-c2nc(-c3cccc(OCCN4CCOCC4)c3)c(-c3ccnc(Br)c3)[nH]2)cc1)c1ccccc1    0.0

Ask: Could you kindly confirm the outcome this assay logged for O=C(/C=C/c1sc(Cl)nc1Cl)c1ccccc1 ?
Reply: 0.0

Ask: Could you kindly confirm the outcome this assay logged for CCCCC1CCCC12NC(=O)NC2=O (stereo not drawn) ?
Reply: 0.0

Ask: Could you kindly confirm the outcome this assay logged for COc1ccc(/C=C2\Oc3cc(OCCN4CCC(Cc5ccccc5)CC4)ccc3C2=O)cc1OC ?
Reply: 0.0

Ask: Could you kindly confirm the outcome this assay logged for O=C(Nc1ccc(-c2nc(-c3cccc(OCCN4CCOCC4)c3)c(-c3ccnc(Br)c3)[nH]2)cc1)c1ccccc1 ?
Reply: 1.0

Ask: Could you kindly confirm the outcome this assay logged for COc1ccc2[nH]c(-c3ccccc3)c(/C=C(\C#N)S(=O)(=O)c3ccccc3)c2c1 ?
Reply: 0.0

Ask: Could you kindly confirm the outcome this assay logged for COc1ccc2cc(C(C)C(=O)Nc3ccc(-c4n[nH]c(=S)n4C4CCCCC4)cc3)ccc2c1 (stereo not drawn) ?
Reply: 0.0

Ask: Could you kindly confirm the outcome this assay logged for COc1ccc(C(=S)N2CCN(c3cccc(C)c3)CC2)cc1OC ?
Reply: 0.0

Ask: Could you kindly confirm the outcome this assay logged for O=C(CSc1nc2ccccc2[nH]1)Nc1cccc(Cl)c1 ?
Reply: 0.0

Ask: Could you kindly confirm the outcome this assay logged for Cc1[nH]c(C(=O)Nc2ccc(C(=O)N3CCNCC3)cc2OC(C)C)c(Cl)c1Cl ?
Reply: 0.0

Ask: Could you kindly confirm the outcome this assay logged for CCCCC[C@H](O)C/C=C1/C(=O)C=C[C@@H]1C/C=C\CCCC(=O)OC ?
Reply: 0.0

Ask: Could you kindly confirm the outcome this assay logged for Cn1cc(C(=O)c2nc(-c3cn(C)c4ccc(F)cc34)no2)c2cc(F)ccc21 ?
Reply: 0.0

Ask: Could you kindly confirm the outcome this assay logged for COc1ccc(C(=O)C(C)C)c2ccccc12 ?
Reply: 0.0

Ask: Could you kindly confirm the outcome this assay logged for CCOC(=O)c1cn2ncnc(Oc3ccc(NC(=O)NCCN4CCOCC4)c(Cl)c3)c2c1C ?
Reply: 0.0

Ask: Could you kindly confirm the outcome this assay logged for NCCOc1ncccc1/C=C1\c2ccccc2-c2ccc(C(F)F)cc21 ?
Reply: 0.0

Ask: Could you kindly confirm the outcome this assay logged for Cc1onc2c(-c3ccccc3)n[nH]c(=O)c12 ?
Reply: 0.0

----------
Tested on: SK-OV-3 ovarian
Assay: NCI-60 one-dose screen, 48 h (100 = growth as untreated, 0 = no growth, -100 = all killed)
Details: 10 µM unless noted
About 83,000 compounds went through this panel and 20% of them were active in at least one assay; those are over-represented in the sample as a whole. Calls of active or inactive are those of the source. Rule for the calls: active = growth percent below 10; inactive = the rest.
Each entry below carries its recorded growth.

Example cases with answers are listed next.
COc1ccc2nc(NCCCNCCO)c3sc4ccc(F)cc4c(=O)c3c2c1    90.1% (inactive)
O=C(S)CNC(=O)c1ccccc1    89.4% (inactive)
CC(=O)CC[C@H]1C(=O)N[C@@H](C(C)C)C(=O)N[C@@H](Cc2cc(O)cc(F)c2)C(=O)N2CCC[C@H](N2)C(=O)O[C@H](/C(C)=C/C=C/C(=O)OC(C)(C)C)C/C=C/C=C/[C@H](O)[C@H](C)[C@H]1O    48.8% (inactive)

Ask: Hello, I am looking for reported growth with SK-OV-3 ovarian for C=C1C(=O)O[C@H]2[C@H]1CC/C(COC(=O)CCSSCCC(=O)OC/C1=C/CC[C@@]3(C)O[C@H]3[C@H]3OC(=O)C(=C)[C@@H]3CC1)=C\CC[C@@]1(C)O[C@@H]21 . Could you help?
Reply: 89.9% (inactive)

----------
Each entry below carries its recorded growth.
Tested on: SF-295 CNS
Assay: NCI-60 one-dose screen, 48 h (100 = growth as untreated, 0 = no growth, -100 = all killed)
Details: 10 µM unless noted
The panel holds about 83,000 compounds, 20% with a hit somewhere; the sample as a whole holds those more often. Active and inactive are the calls of the source. How the source made its calls: active means growth percent below 10; inactive means the rest.

COc1ccc(OC)c(/C=C/C(=O)N/N=C/c2ccc(Cl)cc2)c1    31.8% (inactive)
CN(C)CCS(=O)(=O)Nc1cc(-c2ccc3ncc(C#N)c(Nc4ccc(F)c(Cl)c4)c3c2)cnc1Cl    -19% (active)
COC1=C(C)C(=O)c2c(c(CCCl)c3n2CCC3OC(C)=O)C1=O (stereo not drawn)    -11.7% (active)

Ask: # growth lookup, item CC1=NN(c2ccc(S(=O)(=O)O)cc2)C(=O)C1N=Nc1ccc(-c2ccc(N=Nc3ccc(OS(=O)(=O)c4ccc(C)cc4)cc3)c(S(=O)(=O)O)c2)cc1 (stereo not drawn)
Reply: 77.5% (inactive)

Ask: # growth lookup, item COc1c(B(O)O)cc(F)cc1-c1nc2ccc3[nH]ncc3c2c2c1CCCC2
Reply: 10.8% (inactive)

Ask: # growth lookup, item CCOC(=O)/C=C1\S/C(=N\Nc2ccc([N+](=O)[O-])cc2[N+](=O)[O-])N(Cc2ccccc2)C1=O
Reply: 95.1% (inactive)

Ask: # growth lookup, item COc1cccc(Oc2ccccc2NC(=O)CNC(=O)c2cccc3ccccc23)c1
Reply: 14.6% [5 µM] (inactive)

Ask: # growth lookup, item c1ccc(-c2nc3sc(-c4ccccc4)cn3n2)cc1
Reply: 101% (inactive)

----------
Test system: NCI-H460 lung
Assay: NCI-60 one-dose screen, 48 h (100 = growth as untreated, 0 = no growth, -100 = all killed)
Conditions: 10 µM unless noted
Compounds without any hit were thinned out: in the full panel of roughly 83,000, 20% have a hit.
endpoint label: growth (%)
Field: numeric (%). Do not append units.

NCCNc1nc2ccccc2c2c(=O)c3cccc(F)c3sc12    13.8
CC(=O)CC[C@H]1C(=O)N[C@@H](C(C)C)C(=O)N[C@@H](Cc2cc(O)cc(F)c2)C(=O)N2CCC[C@H](N2)C(=O)O[C@H](/C(C)=C/C=C/C(=O)OC(C)(C)C)C/C=C/C=C/[C@H](O)[C@H](C)[C@H]1O    13.3
Cc1cc(=O)[nH]c(=O)n1Cc1cn(-c2c3ccccc3nc3ccccc23)nn1    99.3

Consider the additional compound presented here.
Ask: # growth lookup, item CCCCCCCCCCCCCCCCCCOc1ccccc1CC(=O)OCC[N+](CC)(CC)CC
Reply: 34.6

----------
Test system: SF-539 CNS
Assay: NCI-60 one-dose screen, 48 h (100 = growth as untreated, 0 = no growth, -100 = all killed)
Settings: 10 µM unless noted
Procedure: Cells are grown in 96 well plates and exposed to the test compound for 48 hours. Compounds are tested at a single concentration, which is 10^-5 M for most compounds. The reported endpoint is percent growth (GI% or GIPRCNT), where numbers from 0 - 100% represent growth inhibition, and numbers from -100% - 0 represent cell death. For example, a value of 40 represents 60% growth inhibition. A value of 0 means no net growth occurred over the course of the experiment. […]
The panel holds about 83,000 compounds, 20% with a hit somewhere; the sample as a whole holds those more often.
endpoint label: growth (%)
Field: numeric (%). Do not append units.

Example cases with answers are listed next.
C[N+]1=C(/C=C/c2ccc(O)c3ncccc23)C(C)(C)c2ccccc21    25.9
COc1cccc(OC)c1C(=O)N[C@@H]1C(=O)N2[C@@H]1SC(C)(C)[C@@H]2C(=O)O    108

Ask: # growth lookup, item Brc1ccc2[nH]cc(-c3nc(-c4c[nH]c5ccncc45)cs3)c2c1
Reply: -94.9
